- testDescription: Metabolic stability using human liver microsomes
- Type: in vitro ADME
- conditionDescription: human, pH 7.4, 5 mg/mL human liver microsomes, 0.25 μM test compound, 2 mM NADPH, 37° C., experiment 2501, read-out: t1/2 EXP# 2501
So I've got a bunch of compounds here, and I need their half-life at 0.25 μM values.
The answer is to be given in h; state only the numeric part.

Field half-life at 0.25 μM (entry NC(=O)C[C@H](C1CCCC1)n1cc(-c2ncnc3[nH]ccc23)cn1 [Compound 50, reference compound] ) reads 1.87

Field half-life at 0.25 μM (entry [2H]C1([2H])C([C@@H](CC(N)=O)n2cc(-c3ncnc4[nH]ccc34)cn2)C([2H])([2H])C([2H])([2H])C1([2H])[2H] ) reads 4.97

----------
- testDescription: Metabolic stability using human liver microsomes
- Type: in vitro ADME
- conditionDescription: human, pH 7.4, 5 mg/mL human liver microsomes, 0.25 μM test compound, 2 mM NADPH, 37° C., experiment 2498, read-out: t1/2 EXP# 2498
readoutKind: half-life at 0.25 μM (h)
The answer is to be given in h; state only the numeric part.

Field half-life at 0.25 μM (entry [2H]C1([2H])C([C@@H](CC(N)=O)n2cc(-c3ncnc4[nH]ccc34)cn2)C([2H])([2H])C([2H])([2H])C1([2H])[2H] [Compound 10] ) reads 1.6

Field half-life at 0.25 μM (entry NC(=O)C[C@H](C1CCCC1)n1cc(-c2ncnc3[nH]ccc23)cn1 [Compound 50, reference compound] ) reads 0.822
